experiment: qHTS Assay for Lipid Storage Modulators in Drosophila S3 Cells; details: BODIPY lipid droplet fluorescence, 18-24 h, cells fed with added oleic acid; series mostly up to 46.1 µM
About 2,100 (0.66%) of roughly 320,000 compounds were called active. Roughly 53% stayed inconclusive and do not appear here. The call rests on the fitted dose curve; in most records, active means well fitted inhibition curve with a large enough effect in the signal ratio, with a control signal flat (not every such curve was filed as active); inconclusive means small, poorly fitted or top-dose-only effect, or effect the other way, or a change in a side signal; inactive means flat fitted curve, though single readings scatter; the % refers to the signal ratio. Shown is part of a subset that was picked to be rich in actives.
Outcome codes: 1 for active, -1 for inactive

[
  {
    "Compound": "COc1ccccc1NNC(=O)c1cc(C(C)(C)C)nn1Cc1ccccc1",
    "Category": -1
  },
  {
    "Compound": "CC(C)(C)c1cc(C(=O)NNc2cc(C(F)(F)F)ccc2Cl)n(Cc2ccccc2)n1",
    "Category": 1
  },
  {
    "Compound": "CCCn1cc(S(=O)(=O)c2ccc(OC)cc2)c(=O)c2cc(OCC)ccc21",
    "Category": -1
  },
  {
    "Compound": "CCCCCC(=O)Nc1cc(S(=O)(=O)N2CCCCC2)ccc1N1CCOCC1",
    "Category": -1
  },
  {
    "Compound": "Cc1ccc(C(=O)C2=C(O)C(=O)N(Cc3cccnc3)C2c2ccc(Cl)cc2)o1 (stereo not given)",
    "Category": -1
  },
  {
    "Compound": "CCc1ccc(CN(C)C(=O)c2cc(COc3cccc4cnccc34)on2)cc1",
    "Category": -1
  },
  {
    "Compound": "CCCCCCCNC(=O)C1(CC2CC(c3ccc(Cl)cc3)=NO2)CCNCC1 (stereo not given)",
    "Category": -1
  },
  {
    "Compound": "CN(C)S(=O)(=O)c1ccc(C(=O)Oc2coc(CSc3ncccn3)cc2=O)cc1",
    "Category": -1
  },
  {
    "Compound": "N#Cc1nc(-c2cccs2)oc1NCc1ccc(Cl)cc1",
    "Category": -1
  },
  {
    "Compound": "CNC(=O)Cn1c(C)cc(=O)c2cccc(C)c21",
    "Category": -1
  }
]
